Test: amyloid nucleation score (Sup35N fusion, yeast selection) (log enrichment); library NNK3; higher = more nucleation; inactive = no reads after selection;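 note: zero at mode of non-aggregating sequences after 7 days selection at 30°C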
result-type: amyloid nucleation score

Consider the following illustrative entries.
Req: Dear colleague, I am looking for the recorded amyloid nucleation score of the following substance: HSDILRFCLMVNKDTVHSVL
Resp: inactive

Req: Dear colleague, I am looking for the recorded amyloid nucleation score of the following substance: DIFGSGYGYRGLSGRNYINM
Resp: inactive

Req: Dear colleague, I am looking for the recorded amyloid nucleation score of the following substance: STVELWQELFAFNTRGGSNG
Resp: inactive

Req: Dear colleague, I am looking for the recorded amyloid nucleation score of the following substance: RLIWFE
Resp: inactive

Req: Dear colleague, I am looking for the recorded amyloid nucleation score of the following substance: QRLCCPRNL
Resp: inactive

Others:
Req: Dear colleague, I am looking for the recorded amyloid nucleation score of the following substance: GNMCDRTYLRMMLFHCRMPS
Resp: inactive

Req: Dear colleague, I am looking for the recorded amyloid nucleation score of the following substance: LPVEMKLLIMMRVPSFHFRH
Resp: inactive

Req: Dear colleague, I am looking for the recorded amyloid nucleation score of the following substance: GIYPSHHWGI
Resp: inactive

Req: Dear colleague, I am looking for the recorded amyloid nucleation score of the following substance: VSWHNILMWTRTPL
Resp: inactive

Req: Dear colleague, I am looking for the recorded amyloid nucleation score of the following substance: YRYRACSSNFYVTVFGQLHV
Resp: 2.33

Req: Dear colleague, I am looking for the recorded amyloid nucleation score of the following substance: ITCLNLINGGYHP
Resp: -0.066
